Study System: Kv2.1
Experiment Summary: cell-based or functional assay
Value Type: IC50

Lab note: measured IC50 of GNDCLGFWSACNPKNDKCCANLVCSSKHKWCKGKL (modifications not checked) [Hs1a] was > 3000 nM
